Reference for the values: PubChem BioAssay AID1445

Tested system: Aminopeptidase N (Plasmodium falciparum (isolate 3D7)) (UniProt O96935)
Sequence (O96935 whole entry, looked up): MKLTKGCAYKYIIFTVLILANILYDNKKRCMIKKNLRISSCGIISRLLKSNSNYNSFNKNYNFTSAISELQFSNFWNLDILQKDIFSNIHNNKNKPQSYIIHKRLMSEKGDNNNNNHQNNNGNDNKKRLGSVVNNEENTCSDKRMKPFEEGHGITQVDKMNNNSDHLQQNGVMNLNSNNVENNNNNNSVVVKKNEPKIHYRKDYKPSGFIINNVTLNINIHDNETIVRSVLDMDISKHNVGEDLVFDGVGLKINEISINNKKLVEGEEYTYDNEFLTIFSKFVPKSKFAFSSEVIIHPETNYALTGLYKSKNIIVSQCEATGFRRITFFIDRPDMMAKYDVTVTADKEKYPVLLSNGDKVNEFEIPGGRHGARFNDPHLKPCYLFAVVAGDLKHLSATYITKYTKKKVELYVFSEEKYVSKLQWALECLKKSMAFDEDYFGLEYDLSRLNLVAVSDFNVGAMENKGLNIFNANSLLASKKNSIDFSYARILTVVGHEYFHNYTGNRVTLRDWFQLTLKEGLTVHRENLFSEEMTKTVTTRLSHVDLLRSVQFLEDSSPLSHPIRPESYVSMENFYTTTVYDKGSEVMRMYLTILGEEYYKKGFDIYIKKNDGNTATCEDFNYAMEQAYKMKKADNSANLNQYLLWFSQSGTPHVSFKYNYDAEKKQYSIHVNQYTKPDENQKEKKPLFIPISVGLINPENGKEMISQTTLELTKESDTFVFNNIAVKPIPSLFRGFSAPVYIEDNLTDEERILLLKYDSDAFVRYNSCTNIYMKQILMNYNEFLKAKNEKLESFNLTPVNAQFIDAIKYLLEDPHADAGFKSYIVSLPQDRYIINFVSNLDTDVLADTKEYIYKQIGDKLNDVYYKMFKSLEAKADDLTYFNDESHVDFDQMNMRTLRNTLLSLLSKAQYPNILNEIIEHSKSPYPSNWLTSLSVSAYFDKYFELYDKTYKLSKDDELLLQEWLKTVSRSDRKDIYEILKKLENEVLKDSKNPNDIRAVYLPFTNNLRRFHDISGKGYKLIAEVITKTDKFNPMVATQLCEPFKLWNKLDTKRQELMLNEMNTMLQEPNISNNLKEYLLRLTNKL
Assay: malaria alanyl aminopeptidase activity blockers – biochemical, fluorogenic H-Leu-NHMec substrate, 1536-well (AID 1445);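 note: plate controls were DMSO full reaction for no effect and no enzyme background for full effect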
Run conditions: recombinant M1AAP, H-Leu-NHMec fluorogenic kinetic assay; at 30 µM, hits give high values unless noted
About 910 (0.41%) of roughly 220,000 compounds were called active. Only a selection was taken, and actives are over-represented in it overall. Potency and affinity values are given separately.
Entries and their measured inhibition follow.
Readout name: inhibition (%)

> print(dat)
                                   molecule  readout.name  value.reported
1  CCN(CC)S(=O)(=O)c1ccc(-c2nnc(SCC(C)=O)o2)cc1    inhibition            26.5
2  CCN1C(=O)S/C(=C/c2c(OCc3ccc(C(=O)O)cc3)ccc3ccccc23)C1=O    inhibition            9.62
3  CCN(CC)S(=O)(=O)c1ccc(-c2nnc(SCC(=O)N3CCOCC3)o2)cc1    inhibition           -1.63
4  CCc1nnc(NS(=O)(=O)c2ccc(NC(=S)NC(=O)c3ccc(F)cc3)cc2)s1    inhibition            22.7
5  CC(Sc1nc(N)cc(=O)[nH]1)C(=O)Nc1cccc(Cl)c1 (stereo not given)    inhibition            14.1
